B1: library; numbered along this chain (parent)
chain: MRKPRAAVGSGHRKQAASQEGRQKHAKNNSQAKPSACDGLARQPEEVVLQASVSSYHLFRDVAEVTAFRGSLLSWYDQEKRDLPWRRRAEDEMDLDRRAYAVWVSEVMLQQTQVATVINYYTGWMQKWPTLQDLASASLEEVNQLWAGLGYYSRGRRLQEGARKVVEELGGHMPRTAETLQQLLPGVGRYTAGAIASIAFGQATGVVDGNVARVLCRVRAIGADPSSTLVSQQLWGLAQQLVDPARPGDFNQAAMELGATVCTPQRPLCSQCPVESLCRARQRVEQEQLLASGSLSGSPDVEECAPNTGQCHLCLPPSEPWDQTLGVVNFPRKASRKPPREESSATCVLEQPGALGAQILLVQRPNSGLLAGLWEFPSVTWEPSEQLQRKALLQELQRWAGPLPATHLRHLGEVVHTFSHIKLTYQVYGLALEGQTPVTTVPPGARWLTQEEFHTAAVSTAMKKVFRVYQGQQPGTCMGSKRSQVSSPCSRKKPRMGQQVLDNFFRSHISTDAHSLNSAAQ

# Variants of: B1
# Assay Name: 8OG:A repair function score (normalized; synonymous = 0, nonsense = -1) (normalized log-likelihood score); higher = more repair activity (WT-like);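 note: cells sorted at 72 h after reporter transfection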
# Details: with 8OG:A DNA repair reporter (GFP) in HEK-293 MUTYH KO cells
# label = T if 8OG:A repair function score >= -0.07 else F

Completed entries (count: 6):
S52Y    T
I221Q    F
L290W    T
V65D    F
Q310W    T
A291T    T

Assess whether reported 8OG:A repair function score for L131E sits at -0.07 or higher. F

Assess whether reported 8OG:A repair function score for D77E sits at -0.07 or higher. T

Cited source: the supplement of paper PMC11908140
